observation.type: melting point

                                     smiles   result_value
0  CCCc1nc2c(N)nc3cc(-c4ccccc4NC(C)=O)ccc3c2s1  206 to 209 °C
1  CCCc1nc2c(N)nc3ccc(-c4cccc(NS(C)(=O)=O)c4)cc3c2s1  244 to 246 °C
2  CCCc1nc2c(N)nc3ccc(-c4ccc(CO)cc4)cc3c2s1  212 to 214 °C
3    CCCc1nc2c(N)nc3cc(-c4ccccc4CO)ccc3c2s1  216 to 219 °C

What value of melting point has been recorded for this entry: CCCc1nc2c(N)nc3cc(-c4ccc(F)cc4CN)ccc3c2s1
181 to 184 °C

What value of melting point has been recorded for this entry: CCCc1nc2c(N)nc3cc(-c4cccc(C(=O)N5CCCC5)c4)ccc3c2s1
177 to 180 °C

What value of melting point has been recorded for this entry: CCCc1nc2c(N)nc3ccc(-c4cccc(S(C)(=O)=O)c4)cc3c2s1
252 to 255 °C

What value of melting point has been recorded for this entry: CCCc1nc2c(N)nc3cc(-c4cccc(NS(C)(=O)=O)c4)ccc3c2s1
228 to 231 °C

What value of melting point has been recorded for this entry: CCCc1nc2c(N)nc3ccc(-c4ccccc4CO)cc3c2s1
194 to 196 °C
